# EXPERIMENTAL_TARGET: 5-HT6 receptor (Homo sapiens, UniProt P50406)
# Sequence (P50406 whole entry): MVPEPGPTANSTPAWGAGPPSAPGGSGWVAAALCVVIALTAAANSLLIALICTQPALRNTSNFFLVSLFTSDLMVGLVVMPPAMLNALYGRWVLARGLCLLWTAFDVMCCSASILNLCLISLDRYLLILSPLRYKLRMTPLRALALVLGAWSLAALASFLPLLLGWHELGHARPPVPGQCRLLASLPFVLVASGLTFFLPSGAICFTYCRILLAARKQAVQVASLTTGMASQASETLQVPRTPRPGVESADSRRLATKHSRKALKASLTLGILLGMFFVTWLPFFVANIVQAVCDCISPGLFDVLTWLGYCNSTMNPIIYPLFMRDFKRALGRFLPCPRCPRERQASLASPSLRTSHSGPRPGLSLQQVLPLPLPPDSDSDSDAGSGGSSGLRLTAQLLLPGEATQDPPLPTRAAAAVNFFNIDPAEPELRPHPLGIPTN
# ASSAY_PROTOCOL: In vitro affinity for human 5-HT6 receptors ([3H]-LSD binding, CHO cell membranes)
# Parameters: host or cells: CHO/Gα16/mtAEQ/h5HT6-A1 cells
# RECORDED_CONDITIONS: [3H]-LSD, membranes of CHO cells with human 5-HT6; main compound table; read-out: 5-HT6 pKi (converted)
MEASURED_QUANTITY: Ki (nM)

COMPOUND	QUANTITATIVE_READOUT
CCN/C(=N\S(=O)(=O)c1ccc(O)c(Cl)c1)N1CC(CC)C=N1 (stereo not drawn)	10
CCN/C(=N\S(=O)(=O)c1ccc(N)cc1)N1CC(CC)C=N1 (single isomer, unassigned) [Compound 1]	3.16
N/C(=N\S(=O)(=O)c1ccc(N)cc1)N1CC2(C=N1)CCCC2	100
CCN/C(=N\S(=O)(=O)c1ccc(N)c(Cl)c1)N1CC2(C=N1)CCCC2	1.58
CCN/C(=N\S(=O)(=O)c1ccc2c(c1)NCC2)N1CC(CC)C=N1 (stereo not drawn)	501
CCN/C(=N\S(=O)(=O)c1ccc(N)cc1)N1CC(C)(C)C=N1	12.6
CCN/C(=N\S(=O)(=O)c1ccc2c(c1)CCN2)N1CC(C)(C)C=N1	15.8
CCN/C(=N\S(=O)(=O)c1ccc2c(c1)CCN2)N1CC(CC)C=N1 (stereo not drawn)	12.6
N/C(=N\S(=O)(=O)c1ccc(N)cc1)N1CC2(C=N1)CCOCC2	251

---

# EXPERIMENTAL_TARGET: UniProt:P50406
# ASSAY_PROTOCOL: In vitro affinity for human 5-HT6 receptors ([3H]-LSD binding, CHO cell membranes)
# Parameters: host or cells: CHO/Gα16/mtAEQ/h5HT6-A1 cells
# RECORDED_CONDITIONS: [3H]-LSD, membranes of CHO cells with human 5-HT6; main compound table; read-out: 5-HT6 pKi (converted)
MEASURED_QUANTITY: Ki (nM)

COMPOUND	MEASURED_QUANTITY	QUANTITATIVE_READOUT
CCN/C(=N\S(=O)(=O)c1ccc(N)c(Cl)c1)N1CC(C)(C)C=N1	Ki	6.31
CCN/C(=N\S(=O)(=O)c1cc(O)cc(Cl)c1)N1CC(CC)C=N1 (stereo not shown)	Ki	5.01
CCN/C(=N\S(=O)(=O)c1ccc(O)cc1)N1CC(C)(C)C=N1	Ki	12.6
CN/C(=N\S(=O)(=O)c1ccc(N)cc1)N1CC2(C=N1)CCOCC2	Ki	200
CCN/C(=N\S(=O)(=O)c1ccc(N)c(Cl)c1)N1CC(CC)C=N1 (single isomer, unassigned) [Compound 11]	Ki	1
CCN/C(=N\S(=O)(=O)c1cccc(O)c1)N1CC(C)(C)C=N1	Ki	50.1
CCN/C(=N\S(=O)(=O)c1ccc(N)cc1)N1CC2(C=N1)CCCC2	Ki	10

---

Documented 5-HT6 pA2 across a set of compounds
# EXPERIMENTAL_TARGET: 5-HT6 receptor (Homo sapiens, UniProt P50406)
# ASSAY_PROTOCOL: In vitro functional activity ((ant)agonism) on human 5-HT6 receptors, CHO-human-5HT6-Aequorin assay
# Format: cell-based
# Set-up: host or cells: CHO AequoScreen recombinant cell line (expresses mitochondrial targeted apo-Aequorin)
# RECORDED_CONDITIONS: antagonism of 10^-8 M α-methylserotonin induced luminescence; main compound table

STRUCTURE_STRING	EXPERIMENTAL_TARGET	5-HT6 pA2
CCN/C(=N\S(=O)(=O)c1ccc(N)c(Cl)c1)N1CC2(C=N1)CCCC2	5-HT6 receptor (Homo sapiens, UniProt P50406)	9.0
CCN/C(=N\S(=O)(=O)c1ccc(N)cc1)N1CC(C)(C)C=N1	5-HT6 receptor (Homo sapiens, UniProt P50406)	7.6
CCN/C(=N\S(=O)(=O)c1ccc(N)cc1)N1CC2(C=N1)CCNCC2	5-HT6 receptor (Homo sapiens, UniProt P50406)	8.6
CCN/C(=N\S(=O)(=O)c1ccc2[nH]ccc2c1)N1CC2(C=N1)CCNCC2	5-HT6 receptor (Homo sapiens, UniProt P50406)	8.8

Ref: patent US8563723B2
